experiment: cytotoxicity in HPDE-C7 cells, cell-based, fluorescence, HTS (AID 430); conditions: HPDE-C7 pancreatic duct cells viability, at 10 µM, active compounds read high;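 further: cells exposed to compound for 48 hours before viability readout; 0% = vehicle and 100% = reference cytotoxic drug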
In all, about 63,000 compounds went through this assay and about 1,100 (1.7%) were called active. The sample as a whole holds a higher share of actives than the screen did. Entries with a potency or affinity are not part of this list.
# cytotoxicity per record follows
REPORTED ENDPOINT: cytotoxicity (%)

molecule=CCOC(=O)c1[nH]c(C)c(C(=O)NCc2ccccn2)c1C measured_number=-28.2
molecule=Cc1[nH]c2ccccc2c1NC(=O)CN1CCN(c2cccc(C(F)(F)F)c2)CC1 measured_number=62.1
molecule=COc1c(Br)cc(Br)cc1/C=N/n1c(C)nnc1C measured_number=2.9
molecule="NC1=NC(c2ccccc2Cl)n2c(nc3ccccc32)N1 (stereo unspecified)" measured_number=7
molecule=CCOC(=O)c1cc(NC(=O)Nc2ccc(OC)c(OC)c2)c(C)nc1C measured_number=5.7
molecule="CCCCCCC1CC(CSc2ncn[nH]2)OC1=O (stereo unspecified)" measured_number=6.8
molecule=COC(=O)c1[nH]c2ccccc2c1NC(=O)CN1CCN(c2cccc(Cl)c2)CC1 measured_number=0.5
molecule="CCC1CCCCN1C(=O)Cn1c(=O)n(CCC(=O)NCc2ccco2)c(=O)c2sccc21 (stereo unspecified)" measured_number=-4.6
molecule="OC(CN1CCN(c2cccc(C(F)(F)F)c2)CC1)c1c[nH]c2ccccc12 (stereo unspecified)" measured_number=26.7
molecule="CCOc1ccc(C(=O)NCC2CCCO2)cc1 (stereo unspecified)" measured_number=1.4
molecule=Cc1nnc(C)n1/N=C/c1cc(Br)ccc1O measured_number=-12.5

Where do these numbers come from? They come from PubChem BioAssay AID430.
